Reference source for all entries: paper PMC12297423

- target or system: porcine pancreatic α-amylase (Sus scrofa)
- Construct: purchased BioVision K482-100
- Sequence (P00690 16-511): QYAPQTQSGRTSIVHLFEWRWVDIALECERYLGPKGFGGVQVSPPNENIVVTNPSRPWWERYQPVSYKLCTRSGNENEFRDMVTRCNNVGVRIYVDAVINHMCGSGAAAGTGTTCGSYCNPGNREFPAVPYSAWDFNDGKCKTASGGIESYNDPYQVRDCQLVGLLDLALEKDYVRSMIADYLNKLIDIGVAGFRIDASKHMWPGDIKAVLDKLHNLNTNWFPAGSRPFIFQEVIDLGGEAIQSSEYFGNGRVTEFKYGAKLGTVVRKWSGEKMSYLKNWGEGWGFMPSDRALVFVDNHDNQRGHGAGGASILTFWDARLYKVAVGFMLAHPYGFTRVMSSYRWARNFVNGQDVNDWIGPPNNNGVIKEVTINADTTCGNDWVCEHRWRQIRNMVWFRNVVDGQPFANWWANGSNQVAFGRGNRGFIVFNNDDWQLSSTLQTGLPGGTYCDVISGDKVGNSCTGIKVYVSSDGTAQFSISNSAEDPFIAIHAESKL
- measurement description: In vitro α-amylase inhibition assay (BioVision kit / modified DNSA method)
- Type: biochemical
- condition description: conc 1 (µg/mL), Table 1S
measured endpoint: %inh α-amylase
Please append the unit to your numeric answer.

Exam item: Give the measured %inh α-amylase for COc1ccc(Cc2nnc(SCC(=O)Nc3ccc(C(=O)O)cc3)n2-c2ccccc2)cc1 [Compound 6]
Marked response: 40.6%

Exam item: Give the measured %inh α-amylase for COc1ccc(Cc2nnc(SCC(=O)Nc3ccccc3)n2-c2ccccc2)cc1 [Compound 3]
Marked response: 58.4%

Exam item: Give the measured %inh α-amylase for CCOC(=O)c1ccc(NC(=O)CSc2nnc(Cc3ccc(OC)cc3)n2-c2ccccc2)cc1 [Compound 8]
Marked response: 41.6%

Exam item: Give the measured %inh α-amylase for COc1ccc(Cc2nnc(SCC(=O)Nc3ccc(C(C)=O)cc3)n2-c2ccccc2)cc1 [Compound 4]
Marked response: 62.6%

Exam item: Give the measured %inh α-amylase for COc1ccc(Cc2nnc(SCC(=O)Nc3ccc(Br)cc3)n2-c2ccccc2)cc1 [Compound 10]
Marked response: 56.1%

Exam item: Give the measured %inh α-amylase for COc1ccc(Cc2nnc(SCC(=O)Nc3ccc(O)cc3)n2-c2ccccc2)cc1 [Compound 9]
Marked response: 48.3%
